Target: T1, human Rh(D) antigen on Rh(D)-positive red blood cells (human, UniProt Q02161 2-417)
T1 construct: whole, on cells; also called wt; wild type Rh(D)
T1 sequence (looked up): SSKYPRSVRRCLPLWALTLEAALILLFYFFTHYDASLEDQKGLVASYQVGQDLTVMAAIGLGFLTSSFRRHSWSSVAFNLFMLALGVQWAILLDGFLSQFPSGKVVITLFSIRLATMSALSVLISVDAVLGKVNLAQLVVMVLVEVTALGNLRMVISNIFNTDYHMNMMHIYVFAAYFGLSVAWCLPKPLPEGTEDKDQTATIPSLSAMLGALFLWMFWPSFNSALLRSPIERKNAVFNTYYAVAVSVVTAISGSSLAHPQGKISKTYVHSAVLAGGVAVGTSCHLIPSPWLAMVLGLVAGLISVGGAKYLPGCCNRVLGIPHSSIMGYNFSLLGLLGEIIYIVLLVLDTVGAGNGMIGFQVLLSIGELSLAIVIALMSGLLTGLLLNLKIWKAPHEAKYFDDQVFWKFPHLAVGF
Test: agglutination, anti-M13
measurement.kind: binding result

binder="SH48 (Fab, V domains shown, Fab on M13 phage) VH: EVQLLESGGGVVQPGRSLRLSCAASGFSFSSYGMHWVRQAPGKGLEWVAVISYDGTNKYFADSVKGRFTISRDNSKKTLYLQMTSLRPEDTAVYFCANLRGEVTRRASVPLDIWGQGTMVTVSS VL: AELTQSPSSLSASVGDRVTITCRASQYISSYLNWYQQKPGKAPNLLIYAASSLQSGVPSRFSGSGSGTDFTLTISSLQPEDFATYYCQQTYSSPSTFGPGTKVDIKR" experimental_value=binds
binder="SH12 (Fab, V domains shown, Fab on M13 phage) VH: EVQLLESGGGVVQPGRSLRLSCAASGFTFSTYGMHWVRQAPGKGLEWVAVIWFDGSNKEYADSVKGRFTVSRDNSKNTLYLQMNSLRAEDTAVYYCAREEVVRGVILWSRKFDYWGQGTLVTVSS VL: AELTQSPFSLSASVGDRVTITCRASHNIYRSLNWFQHKPGEAPKLLVYAASSLQRGVPTRFSGSGSGTDFTLTISSLQPEDSATYFCQQSVTFPYTFGQGTKLEIRR" experimental_value=binds
binder="SH37 (Fab, V domains shown, Fab on M13 phage) VH: EVQLLESGGGVVQPGRSLRLSCEASKFTLYNYGMHWVRQAPGKGLEWVAFIWFDGSNKYYEDSVKGRFTVSRDNSKNTLYLQMNSLRAEDTAVYYCARELSKKVALSRYYYYMDVWGQGTTVTVSS VL: AELQDPVVSVALGQTVKITCQGDSLRKYYASWYQQKPGQAPVLVFYARNSRPSGIPDRFSGSNSGTTASLTIAGARAEDEADYYCHSRDSNGHHRVFGGGTKLTVL" experimental_value=binds
